- System: 786-0
- Protocol Notes: Cytotoxicity against human 786-0 cells assessed as growth inhibition after 48 hrs by SRB assay
- Type: functional
- Test Context: 786-0, 48 h
Quantity: GI50 (µM)
Return type: number; implicit unit µM.

* COc1ccc2c(c1O)COCc1cc(OC)c(OC)c(OC)c1-2 | 0.43
* COc1ccc2c(c1)COCc1cc(OC)c(OC)c(OC)c1-2 | 0.34
* COc1ccc2c(c1OP(=O)([O-])[O-])COCc1cc(OC)c(OC)c(OC)c1-2.[Na+].[Na+] | 0.72

Attention now turns to another entry.
So what does the record say about GI50 for COc1cc2c(c(OC)c1OC)-c1cc3c(cc1COC2)OCO3 ? 0.5

###

Parameter: GI50. Scope: all listed entries.
- System: CCRF-CEM
- Protocol Notes: Cytotoxicity against human CCRF-CEM cells assessed as growth inhibition after 48 hrs by SRB assay
- Assay type: functional
Return type: number; implicit unit nM.

So what does the record say about GI50 for COc1ccc2c(c1)COCc1cc(OC)c(OC)c(OC)c1-2 ? 80

Moving on to COc1ccc2c(c1OP(=O)([O-])[O-])COCc1cc(OC)c(OC)c(OC)c1-2.[Na+].[Na+] 290

Moving on to COc1ccc2c(c1O)COCc1cc(OC)c(OC)c(OC)c1-2 40

Moving on to COc1cc2c(c(OC)c1OC)-c1cc3c(cc1COC2)OCO3 350

###

- Test system: NCI-H226
- Protocol Notes: Cytotoxicity against human NCI-H226 cells assessed as growth inhibition after 48 hrs by SRB assay
- Type: functional
- Test Context: NCI-H226, 48 h
Quantity: GI50 (µM)
Return type: number; implicit unit µM.

- COc1ccc2c(c1O)COCc1cc(OC)c(OC)c(OC)c1-2: 3.47
- COc1cc2c(c(OC)c1OC)-c1cc3c(cc1COC2)OCO3: 2.75
- COc1ccc2c(c1OP(=O)([O-])[O-])COCc1cc(OC)c(OC)c(OC)c1-2.[Na+].[Na+]: 2.82

Attention now turns to another entry.
Tell me reported GI50 for COc1ccc2c(c1)COCc1cc(OC)c(OC)c(OC)c1-2 , tested with NCI-H226. 1.58

###

- Protocol Notes: Inhibition of tubulin (unknown origin) assembly preincubated for 30 mins followed by GTP addition by spectrophotometric method
- Set-up: species or system Homo sapiens
Quantity: IC50 (nM)
Return type: number; implicit unit nM.

So what does the record say about IC50 for COc1ccc2c(c1)[C@@H](NC(C)=O)CCc1cc(OC)c(OC)c(OC)c1-2 ? 700

###

- Test system: CAKI-1
- Protocol Notes: Cytotoxicity against human Caki1 cells assessed as growth inhibition after 48 hrs by SRB assay
- Type: functional
- Test Context: CAKI-1, 48 h
Quantity: GI50 (µM)
Return type: number; implicit unit µM.

* COc1cc2c(c(OC)c1OC)-c1cc3c(cc1COC2)OCO3 | 56.2

So what does the record say about GI50 for COc1ccc2c(c1O)COCc1cc(OC)c(OC)c(OC)c1-2 ? 0.83

Moving on to COc1ccc2c(c1)COCc1cc(OC)c(OC)c(OC)c1-2 30.2

Moving on to COc1ccc2c(c1OP(=O)([O-])[O-])COCc1cc(OC)c(OC)c(OC)c1-2.[Na+].[Na+] 0.79
